# Tested on: ACHN renal
# procedureText: NCI-60 one-dose screen, 48 h
# runParameters: 10 µM
This is part of a sample that, as a whole, favours compounds with a hit. Of some 83,000 tested, about 20% had one in any assay. The source made the active and inactive calls. Rule for the calls: active = growth percent below 10; inactive = the rest.
Use one of these outcomes when replying: True for active, False for inactive

Consider the following illustrative entries.
# compound, assayedSystem, categoryLabel
measured = [
    ("O=C(c1ccc(O)cc1)C1[C@H](c2ccc(Br)cc2)[C@@H](c2ccccc2)NC12C(=O)Nc1ccc(Br)cc12 (stereo not given in full)", "ACHN renal", "True"),
    ("CCOC(=O)CNC(=O)CN(Cc1ccccc1)C(=O)[C@@]1(C)CCC[C@]2(C)[C@H]3C[C@H]4C(C(C)C)=C[C@]3(CC[C@H]21)[C@@H]1C(=O)OC(=O)[C@@H]14", "ACHN renal", "False"),
    ("OCc1[nH]nc2cc(Nc3ncc4ccc(Br)c(OC5CCC(O)CC5)c4n3)ccc12 (stereo not given)", "ACHN renal", "True"),
    ("O=C(c1ccc(Cl)cc1)C1[C@H](c2ccccc2Br)[C@@H](c2ccccc2)NC12C(=O)Nc1ccc(Br)cc12 (stereo not given in full)", "ACHN renal", "False"),
    ("CC(=O)C1=C(C)NC(SCC(=O)Nc2ccc(S(=O)(=O)Nc3cc(C)on3)cc2)=NC1c1ccccc1 (stereo not given)", "ACHN renal", "False"),
]

Moving on to another compound below.
Status in this test for `O=c1oc2ccc(-c3ccc(F)cc3F)cc2c(=O)n1-c1ccc(F)c(Cl)c1` ? True
